This collection of values is drawn from paper PMC9271885.

Procedure summary: Quantification of TIZ in plasma, lung and nasal turbinates of hamsters (HPLC-UV)
Assay type: in vivo, Syrian hamsters
Run parameters: hamster, in vivo, 13.5 mg, after single-dose administration (13.5mg NTZ), hamsters; read-out: lung/plasma ratio
Measurement type: Kp

Ask | Entry O=C(Nc1ncc([N+](=O)[O-])s1)c1ccccc1O [TIZ, tizoxanide] : reported Kp = ?
Reply | 0.022 to 0.048

###

Procedure summary: Quantification of TIZ in plasma, lung and nasal turbinates of hamsters (HPLC-UV)
Type: in vivo, Syrian hamsters
Run parameters: hamster, in vivo, 13.5 mg, single dose nitazoxanide 13.5mg, uninfected animals, 2h post-administration, individual animals; read-out: Lung to plasma ratio
Measurement type: Kp at 2 h
Give bare numbers.

Ask | Value lookup for Kp at 2 h; key = O=C(Nc1ncc([N+](=O)[O-])s1)c1ccccc1O [TIZ, tizoxanide]
Reply | 0.027
